measurementDescription: NOVARTIS: Cytotoxicity against human hepatocellular carcinoma cell line (Huh7)
Assay type: toxicity, cell-based, Huh-7
cond: Huh7 cells (hepatocellular carcinoma cell line)

compound: Cc1ccc(N(C(=O)c2snc(C(=O)NC3CCCCC3)c2N)C(C(=O)NCCc2ccccc2)c2ccc(O)cc2)c(C)c1 (centres undefined)
CC50: > 100 µM
//
compound: COc1ccccc1C(=O)Oc1ccccc1-c1nc2ccccn2c1NC(C)(C)CC(C)(C)C
CC50: > 10 µM
//
compound: CCCN(C(=O)Nc1c(C(C)C)cccc1C(C)C)C(CC)c1nc2ccccc2c(=O)n1-c1cccc(C)c1 (centres undefined)
CC50: 80.9 µM
//
compound: CCCSc1nc(N)c(NC(=O)c2ccco2)c(=O)[nH]1
CC50: > 10 µM
//
compound: COC(=O)c1cccc(NC(=O)C(=Cc2cccc([N+](=O)[O-])c2)NC(=O)c2ccccc2OC)c1
CC50: > 100 µM
//
compound: CCCCc1nc(CN2CCC3(CC2)C(=O)N(CCc2ccccc2)C(=O)N3C)c[nH]1
CC50: > 100 µM
//
compound: CCN(CC)CCNc1ncnc2c1[nH]c1ccc(Br)cc12
CC50: 19.5 µM
//
compound: COc1ccc(-c2cc(C(=O)Nc3cc(Oc4ccc(NC(C)=O)cc4)cc([N+](=O)[O-])c3)c3ccccc3n2)cc1
CC50: > 100 µM
//
compound: CCOc1ccc(-c2cc(C)[n+](CCO)c(-c3ccc(OCC)cc3)c2)cc1
CC50: > 100 µM

###

measurementDescription: NOVARTIS: Cytotoxicity against human hepatocellular carcinoma cell line (Huh7)
Type: toxicity, cell-based, Huh-7
cond: Huh7 cells (hepatocellular carcinoma cell line)

compound: COc1ccc(OC(C)=O)c(C=NNC(=O)C(C)Oc2ccccc2Br)c1 (stereo not given)
CC50: > 100 µM
--
compound: COc1cccc(-c2ccc(O)c(CNCc3ccccc3OC)c2)n1
CC50: > 10 µM
--
compound: CCC(C)(C)n1nnnc1C(c1cc2cc(C)cc(C)c2[nH]c1=O)N1CCN(c2ccc(O)cc2)CC1 (stereo not given)
CC50: > 100 µM
--
compound: Cc1onc(-c2ccccc2Cl)c1C(=O)Nc1cc(Cl)ccc1Cl
CC50: > 100 µM
--
compound: CCCCCCCCOC(=O)NCCCCCCNC(=O)OCCCCCCCC
CC50: > 100 µM
--
compound: CCC(c1nc2ccccc2c(=O)n1-c1cccc(Cl)c1)N(CCc1ccccc1)C(=O)c1ccc(F)cc1 (stereo not given)
CC50: 0.656 µM
--
compound: CCc1ccc(C2C(C(=O)Nc3ccccc3)=C(C)Nc3c(C(=O)Nc4ccc(C)cc4)cnn32)cc1 (stereo not given)
CC50: > 100 µM
--
compound: O=C(CN1CCCC1)Nc1ccc(-c2nc3cc(NC(=O)CN4CCCC4)ccc3o2)cc1
CC50: 36.2 µM
--
compound: CC(=O)N(Cc1ccc2c(c1)OCO2)C1CC(=O)N(c2ccccc2)C1=O (stereo not given)
CC50: > 10 µM
--
compound: Cc1cc(/C=C2\SC(=Nc3ccccc3)NC2=O)c(C)n1-c1cccc([N+](=O)[O-])c1
CC50: > 100 µM

###

measurementDescription: NOVARTIS: Cytotoxicity against human hepatocellular carcinoma cell line (Huh7)
Type: toxicity, cell-based, Huh-7
cond: Huh7 cells (hepatocellular carcinoma cell line)
Parameter: CC50. Scope: all listed entries.
measure: CC50

compound: Cc1ccc(-c2cc3nc4c(c(O)n3n2)CCCC4)cc1
observedValue: > 100 µM

compound: O=C(CN1CCCC1)Nc1nc(-c2ccc3c(c2)CCN3S(=O)(=O)c2ccccc2)cs1
observedValue: > 76.2 µM

compound: O=C(C=Cc1cccnc1)C12CC3CC(CC(C3)C1)C2
observedValue: > 100 µM

compound: Cc1ccn2c(NC(C)(C)CC(C)(C)C)c(-c3ccccc3OC(=O)c3ccc(Cl)cc3)nc2c1
observedValue: > 8.27 µM

compound: Cc1c(Cl)cccc1NC(=O)c1cccnc1Cl
observedValue: > 10 µM

compound: Cc1ccn2c(NC(C)(C)CC(C)(C)C)c(-c3ccccc3OC(=O)CCCCl)nc2c1
observedValue: > 10 µM

compound: CCC(CC)CN1CCC(O)(c2ccc3oc(C(=O)Nc4ccc5c(c4)OCO5)cc3c2)CC1
observedValue: > 100 µM

compound: COc1ccc(C2CC(=O)C3=C(C2)NC(=O)CC3c2ccc(C(F)(F)F)cc2)cc1OC (stereo not given)
observedValue: > 100 µM

compound: Clc1ccc2c(c1)c1cc(Cl)ccc1n2CC1CO1 (stereo not given)
observedValue: 57.4 µM

compound: CC(CCCNCCO)Nc1ccnc2cc(Cl)ccc12 (stereo not given)
observedValue: 14 µM

###

Parameter: pEC50. Scope: all listed entries.
Test system: Plasmodium falciparum
measurementDescription: NOVARTIS: Inhibition of Plasmodium falciparum W2 (drug-resistant) proliferation in erythrocyte-based infection assay
Assay type: functional, organism-based
cond: Plasmodium falciparum, W2; read-out: EC50
pEC50: −log10 of the molar value.
measure: pEC50

molecule: COc1ccccc1NC(=O)N(Cc1ccccc1)C(C)c1nc2ccccc2c(=O)n1-c1cc(C)ccc1C (stereo unspecified)
assayedTarget: Plasmodium falciparum
measure: pEC50
censoringSign: >
observedValue: 8.16

molecule: Cc1cc2c(cc1C)NC(c1ccc(Cl)c(F)c1)C1=C(CC(C)(C)CC1=O)N2 (stereo unspecified)
assayedTarget: Plasmodium falciparum
measure: pEC50
censoringSign: =
observedValue: 6.00

molecule: COc1cc2c(Nc3ccc(Br)cc3F)ncnc2cc1OCC1CCN(C)CC1 [VANDETANIB]
assayedTarget: Plasmodium falciparum
measure: pEC50
censoringSign: =
observedValue: 5.80

molecule: Clc1ccc(-c2c[n+](Cc3ccc(Cl)c(Cl)c3)c3n2CCC3)cc1
assayedTarget: Plasmodium falciparum
measure: pEC50
censoringSign: =
observedValue: 6.21

molecule: CCC(=O)c1c(C)n(-c2ccc(Br)cc2)c2ccc(O)cc12
assayedTarget: Plasmodium falciparum
measure: pEC50
censoringSign: =
observedValue: 5.94

molecule: COc1ccc(CN2CCC(Sc3ncccn3)CC2)cc1
assayedTarget: Plasmodium falciparum
measure: pEC50
censoringSign: =
observedValue: 6.02

molecule: COc1ccc(C2=NN(C(=O)CCC(=O)O)C(c3ccccc3F)C2)cc1 (stereo unspecified)
assayedTarget: Plasmodium falciparum
measure: pEC50
censoringSign: =
observedValue: 6.22

molecule: CC12CN(Cc3ccccc3)CC(C)(CN(Cc3cccc(Br)c3)C1)C2
assayedTarget: Plasmodium falciparum
measure: pEC50
censoringSign: =
observedValue: 6.09

molecule: Cc1cc(N2CCCCC2)nc2ccc(NC(=O)c3cccc([N+](=O)[O-])c3)cc12
assayedTarget: Plasmodium falciparum
measure: pEC50
censoringSign: =
observedValue: 6.10

molecule: Oc1ccc(Nc2ccnc3cc(Cl)ccc23)cc1
assayedTarget: Plasmodium falciparum
measure: pEC50
censoringSign: =
observedValue: 5.45

molecule: COc1ccc(C2C(C(=O)Nc3cccc(OC)c3)c3ccccc3C(=O)N2C2CCCCC2)cc1 (stereo unspecified)
assayedTarget: Plasmodium falciparum
measure: pEC50
censoringSign: =
observedValue: 6.48

molecule: CCOC(=O)c1c(N=Cc2cccc(OC)c2O)sc2c1CCN(C)C2
assayedTarget: Plasmodium falciparum
measure: pEC50
censoringSign: =
observedValue: 6.13

molecule: CCN(CC)CCNc1ccnc2cc(Cl)ccc12
assayedTarget: Plasmodium falciparum
measure: pEC50
censoringSign: =
observedValue: 8.22

molecule: c1cncc(-c2ncc(-c3cnccn3)c(-c3cccnc3)n2)c1
assayedTarget: Plasmodium falciparum
measure: pEC50
censoringSign: <
observedValue: 6.43

molecule: CCc1ccc(C(C)=NNc2nc(O)cc(-c3ccccc3)n2)cc1
assayedTarget: Plasmodium falciparum
measure: pEC50
censoringSign: <
observedValue: 5.84

molecule: Cc1ncc([N+](=O)[O-])n1CCOC(=O)c1c(NC(=O)c2ccccc2)sc2c1CCCC2
assayedTarget: Plasmodium falciparum
measure: pEC50
censoringSign: =
observedValue: 5.70

molecule: O=C(O)c1ccc(C=NNc2ccc([N+](=O)[O-])cc2)cc1
assayedTarget: Plasmodium falciparum
measure: pEC50
censoringSign: <
observedValue: 5.90

molecule: CCN1/C(=C\C=C2/SC(=S)N(c3ccccc3)C2=O)C(C)(C)c2cc(-c3ccccc3)ccc21
assayedTarget: Plasmodium falciparum
measure: pEC50
censoringSign: =
observedValue: 6.50

molecule: Cc1cc(C)c(C(Nc2ccccn2)c2ccc3cccnc3c2O)c(C)c1 (stereo unspecified)
assayedTarget: Plasmodium falciparum
measure: pEC50
censoringSign: =
observedValue: 5.97

molecule: CC(=NNC(=O)/C(=C/c1ccc([N+](=O)[O-])cc1)NC(=O)c1ccccc1)c1ccccn1
assayedTarget: Plasmodium falciparum
measure: pEC50
censoringSign: =
observedValue: 6.93

molecule: CCCCCCc1ccc(C(=O)NCCCCNc2ccnc3cc(Cl)ccc23)cc1
assayedTarget: Plasmodium falciparum
measure: pEC50
censoringSign: =
observedValue: 6.77
